- assay.overview: Ratio of drug level from brain to plasma in CD-1 mouse at 0.1 mg/kg, sc qd measured after 0.5 hrs
- Assay type: ADME, organism-based
- Design: dose 0.1 mg/kg, route subcutaneous
- condition.notes: read-out: BPR
measured.attribute: Kp at 0.5 h

Can you look up the measured Kp at 0.5 h of CC(=O)N[C@H]1CCN(c2ccc(C3=NO[C@H](CNS(=O)(=O)C(C)C)C3)cc2F)C1 for me? 0.03

The measured values listed here are drawn from ChEMBL document CHEMBL3108690.
